// values below are reported GI50
# System: NCI-H23
# Assay Name: NCI tumour cell line growth inhibition, 48 h
Active and inactive are the calls of the source. Cut-off read from the data, not from the text of the source: active = GI50 up to about 1.1 µM and inactive = higher.

Guide cases for GI50, answers given:
{"Molecule": "COc1ccccc1CC(=O)C(O)(C(F)(F)F)C(F)(F)F", "Test Result": "> 100 µM (inactive)"}
{"Molecule": "c1ccc(COc2cccc3cccnc23)cc1", "Test Result": "44 µM (inactive)"}
{"Molecule": "Cc1cc(C)c([S@@](=O)O[C@@H]2[C@H]3OC(C)(C)O[C@H]3O[C@@H]2[C@H]2COC(C)(C)O2)c(C)c1", "Test Result": "31.6 µM (inactive)"}

Shift focus to the following entry.
Identify measured GI50 associated with `Cc1ccc(NC(=S)NNC(=O)c2cc(-c3ccccc3)nc3ccccc23)cc1` 12.6 µM (inactive)

---

# Test system: SF-539
# Assay Name: NCI tumour cell line growth inhibition, 48 h
Activity calls are given as the source filed them. No stated cut-off is given here; in the data, active = GI50 up to about 1.1 µM and inactive = higher.
Would you mind answering with one of these outcomes? active, inactive

Write down the call the test reported for this compound. Item: `O=C(CSc1nc2ccc(Cl)cc2c(=O)n1-c1ccccc1)N/N=C1\C(=O)Nc2ccc(F)cc21` inactive

For this compound, state the assay outcome: `O=S(=O)(O)c1ccc2c(/N=N/c3c(O)ccc4ccccc34)cccc2c1` inactive

What did this assay record as the result for `Cc1sc(NC=C2C(=O)CC(C)(C)CC2=O)nc1-c1ccccc1` ? inactive

Record request — test call for `CC1=CC(C)(C)Nc2ccc(CSc3ccccc3)cc21` inactive

I'd appreciate the recorded outcome for CC1=C(C(N)=O)C(c2ccncc2)C(C#N)C(=O)N1 (configuration not stated) from this test. inactive

Answer briefly: the call reported for `C=C(CS(=O)(=O)c1ccccc1)C(=O)OCC` in this assay. inactive

Query: recorded result category for `Cc1nc(-n2[nH]c(C)c(CCO)c2=O)[nH]c(=O)c1CCO` in this test inactive

Outcome? `C1COCCSC2=C(SCCO1)SC(=C1SC3=C(SCCOCCOCCS3)S1)S2` inactive

What is the recorded call for this compound in the test? `CO[C@@H](c1ccccc1)[C@H](O)[C@@](O)(c1ccccc1)P(=O)(OC)OC` inactive

Lab log entry: `Cc1ccc(C(=O)/C=C2\Nc3ccccc3SC2=O)c(C)c1` — outcome as called in the assay? inactive

Which outcome was entered for the compound `CNC(=S)NN=C1NCCCN1` in this test? inactive

Which result was noted for this compound in the test: `CCCCOC(=O)N[C@H]1CCc2cc(OC)c(OC)c(OC)c2-c2ccc(SC)c(=O)cc21` active

Which outcome did this test record for the compound C=CCCCCCCCCCCCC1CCC(CC)N1 (configuration not stated) ? inactive

What did this assay record as the result for `CCCCOC(=O)NC(=O)c1cn(CCCOC(=O)NCCCCCCNC(=O)OCCCn2cc(C(=O)NC(=O)OCCCC)c(=O)[nH]c2=O)c(=O)[nH]c1=O` ? inactive

Hi, do you know how CC1=NN(C(=O)CC(=O)N(C(=O)c2ccccc2Cl)c2ccc(C)cc2)C(=O)C1/N=N/c1ccc([N+](=O)[O-])cc1 (configuration not stated) came out in this test? inactive

State the result this test recorded for `O=C(/C=C/c1ccc(O)cc1)c1ccc2c(c1)OCO2` . inactive

---

Listing of recorded GI50 by entry.
# System: TK-10
# Assay Name: NCI tumour cell line growth inhibition, 48 h
The source made the active and inactive calls. Rule as the data show it: active = GI50 up to about 1.1 µM and inactive = higher.

{"Mol": "CCOP(=O)(OCC)/C(C#N)=C\\c1ccsc1", "Test Result": "> 100 µM (inactive)"}
{"Mol": "N#CCC(=O)Nc1ccccc1O", "Test Result": "> 100 µM (inactive)"}
{"Mol": "CCn1nc(-c2ccccc2)c2c1N(C)c1ccccc1-n1c(-c3ccccc3)nnc1-2", "Test Result": "16 µM (inactive)"}
{"Mol": "Cc1ccc(-c2nnc(CCCCCCCCc3nnc(-c4ccc(C)cc4O)n3N)n2N)c(O)c1", "Test Result": "> 100 µM (inactive)"}
{"Mol": "CC(C)N(/C(F)=N\\C(=O)Nc1ccccc1C(F)(F)F)C(C)C", "Test Result": "52.5 µM (inactive)"}

Next item in the queue.
Provide only the value of recorded GI50 for `COc1cc2c(c(C)c1O)[C@H]1COc3ccccc3[C@H]1O2` 31.5 µM (inactive)

---

# Test system: HCC 2998
# Assay Name: NCI tumour cell line growth inhibition, 48 h
Active and inactive are the calls of the source. Rule as the data show it: active = GI50 up to about 1.1 µM and inactive = higher.
Metric Name: GI50

# count of solved cases: 5
{"Compound": "COc1cc2c(c(OC)c1OC)C(=O)[C@H](O)[C@H]2NC(N)=O", "Measured On": "HCC 2998", "GI50": "> 100 µM (inactive)"}
{"Compound": "COc1ccc(CNc2cc(OC)cc(OC)c2)cc1", "Measured On": "HCC 2998", "GI50": "> 100 µM (inactive)"}
{"Compound": "C/C(=N\\O)C(CN1CCCCC1)C(c1ccccc1)c1c(O)c2ccccc2oc1=O (stereo not drawn)", "Measured On": "HCC 2998", "GI50": "> 100 µM (inactive)"}
{"Compound": "COc1ccccc1NC(=O)C1=C(C)NC(C)=C(C(=O)Nc2ccccc2OC)C1c1ccco1", "Measured On": "HCC 2998", "GI50": "8.79 µM (inactive)"}
{"Compound": "CN(C)C/C=C(/c1ccc(Br)cc1)c1cccnc1", "Measured On": "HCC 2998", "GI50": "15.7 µM (inactive)"}

Consider the compound `C/C=C/C(=O)N1C(=O)OC[C@@H]1c1ccccc1` and give its recorded GI50. 23.1 µM (inactive)

For the compound CCCCCCCCCCCCCCCC(=O)ON1C(=S)NC(C)(c2ccccc2)C1=S (stereo not drawn) , give its measured GI50 value. 38.5 µM (inactive)

Identify measured GI50 associated with `O=C(/C=C/c1ccccc1Cl)c1cccc2ccccc12` 14.5 µM (inactive)

Retrieve GI50 measured for `C/C(=N/NC(=O)c1ccncc1)c1ccc(NC(=O)C(=O)Nn2c(S)nc3ccccc3c2=O)cc1` and print it. > 100 µM (inactive)

Give GI50 for the following compound: CC1=C(C(N)=O)C(c2ccncc2)C(C#N)C(=O)N1 (stereo not drawn) > 100 µM (inactive)

Answer with the recorded GI50 of `Nc1cc2c3c(c1)Oc1cc(N)cc4c1C3c1c(cc(N)cc1O4)O2` only. 34.9 µM (inactive)

Provide one value: measured GI50 of `COc1ccc(CCc2cc(OC)cc(OC)c2)cc1` 10.2 µM (inactive)

Dear colleague, please send me the reported GI50 for CC(=O)O/C=C\OC1CCCC1(c1ccccc1)c1ccccc1 (stereo not drawn) when you can. 8.91 µM (inactive)

Retrieve GI50 measured for O=C(CC(C(=O)c1ccsc1)c1cccs1)c1ccsc1 (stereo not drawn) and print it. > 100 µM (inactive)

Please supply the value of reported GI50 for the item Nc1cc2c(C3OC(CO)C(O)C3O)n[nH]c2c(=S)[nH]1 (stereo not drawn) > 100 µM (inactive)

Determine its reported GI50: `O=C1Cc2c(-c3ccc(Cl)cc3)cc(-c3ccccc3)nc2-c2ccccc2N1` 4.06 µM (inactive)

Recall and state the measured GI50 for `O=C(O)\C=C/C=C/C=C/C=C/C(=O)O` . > 100 µM (inactive)

---

# System: MOLT-4
# Assay Name: NCI tumour cell line growth inhibition, 48 h
The source made the active and inactive calls. No stated cut-off is given here; in the data, active = GI50 up to about 1.1 µM and inactive = higher. Residues, ends and D or L forms follow the SMILES beside them. *: point of attachment. Boc = CC(C)(C)OC(=O)*; OBn = c1ccc(CO*)cc1
Please reply with one of these outcomes: active, inactive

Example results:
{"Compound": "COC(=O)C(Cc1ccccc1)NP(=O)(O)OCC1OC(n2cc(Br)c(=O)[nH]c2=O)CC1O (stereo unspecified)", "Measured On": "MOLT-4", "Label Class": "inactive"}
{"Compound": "CCOC(=O)[C@@H]1C[C@@H]1c1ccc(O)c(O)c1", "Measured On": "MOLT-4", "Label Class": "inactive"}
{"Compound": "COc1ccc(C2C(C#N)=C(S)N(C3OC(COC(C)=O)C(OC(C)=O)C(OC(C)=O)C3OC(C)=O)C(C)=C2C(C)=O)cc1 (stereo unspecified)", "Measured On": "MOLT-4", "Label Class": "inactive"}

Check the results log: what was the call for NCCC(N)C(=O)O (stereo unspecified) ? inactive

Check the results log: what was the call for `CCOC(=O)c1c(C)n(CCN2CCN(C)CC2)c2ccc(OC)cc12` ? inactive

Hi, sorry to bother you, what did the test record for CC(C)C(NC(=O)C(Cc1ccccc1)NC(=O)OC(C)(C)C)C(=O)NCC(=O)OCc1ccccc1 (stereo not drawn) (Boc-Phe-Val-Gly-OBn; configuration not given here) ? inactive

Record request — test call for `c1ccc2oc(-c3ccc(-c4nc5ccccc5o4)c4c3CC4)nc2c1` inactive

Please indicate how the test categorized Cc1ccsc1C(=O)C(CC(=O)c1cccs1)c1ccsc1 (stereo unspecified) . inactive
